Assay: activity coefficient (dimensionless); of the first substance listed, at infinite dilution; xn = mol fraction of the nth substance listed
Conditions: 328.15 K; 101 kPa; Liquid; Chromatography; x1 = 0
# class assignment by measured activity coefficient: bin A = under 2, bin B = from 2 up to 6, bin C = 6 and over

C1CCOC1 [tetrahydrofuran] + COCC[N+]1(C)CCCCC1.O=S(=O)([N-]S(=O)(=O)C(F)(F)F)C(F)(F)F ... bin A
CCOCC [diethyl ether] + COCC[N+]1(C)CCCCC1.O=S(=O)([N-]S(=O)(=O)C(F)(F)F)C(F)(F)F ... bin B
CCO [ethanol] + COCC[N+]1(C)CCCCC1.O=S(=O)([N-]S(=O)(=O)C(F)(F)F)C(F)(F)F ... bin A
Cc1cccc(C)c1 [1,3-dimethylbenzene] + COCC[N+]1(C)CCCCC1.O=S(=O)([N-]S(=O)(=O)C(F)(F)F)C(F)(F)F ... bin A
C=CCCCC [hex-1-ene] + COCC[N+]1(C)CCCCC1.O=S(=O)([N-]S(=O)(=O)C(F)(F)F)C(F)(F)F ... bin C
CCCO [propan-1-ol] + COCC[N+]1(C)CCCCC1.O=S(=O)([N-]S(=O)(=O)C(F)(F)F)C(F)(F)F ... bin A
CO [methanol] + COCC[N+]1(C)CCCCC1.O=S(=O)([N-]S(=O)(=O)C(F)(F)F)C(F)(F)F ... bin A
C1CCCCCCC1 [cyclooctane] + COCC[N+]1(C)CCCCC1.O=S(=O)([N-]S(=O)(=O)C(F)(F)F)C(F)(F)F ... bin C
CC#N [acetonitrile] + COCC[N+]1(C)CCCCC1.O=S(=O)([N-]S(=O)(=O)C(F)(F)F)C(F)(F)F ... bin A
c1ccccc1 [benzene] + COCC[N+]1(C)CCCCC1.O=S(=O)([N-]S(=O)(=O)C(F)(F)F)C(F)(F)F ... bin A

Next item in the queue.
**Query** Exercise: read the entry C#CCCCC [1-hexyne] + COCC[N+]1(C)CCCCC1.O=S(=O)([N-]S(=O)(=O)C(F)(F)F)C(F)(F)F and state which class it falls under.
**Result** bin B

* * *

Assay: activity coefficient (dimensionless); of the first substance listed, at infinite dilution; xn = mol fraction of the nth substance listed
Conditions: 318.15 K; 101 kPa; Liquid; Chromatography; x1 = 0
Measure: activity coefficient

Required: activity coefficient, one value per compound below.
1. CCOC(C)=O [ethyl acetate] + COCC[N+]1(C)CCCCC1.O=S(=O)([N-]S(=O)(=O)C(F)(F)F)C(F)(F)F
2. Cc1ccccc1 [toluene] + COCC[N+]1(C)CCCCC1.O=S(=O)([N-]S(=O)(=O)C(F)(F)F)C(F)(F)F
3. CC(C)OC(C)C [diisopropyl ether] + COCC[N+]1(C)CCCCC1.O=S(=O)([N-]S(=O)(=O)C(F)(F)F)C(F)(F)F
4. CCCCCCCCC [nonane] + COCC[N+]1(C)CCCCC1.O=S(=O)([N-]S(=O)(=O)C(F)(F)F)C(F)(F)F
5. C1CCOC1 [tetrahydrofuran] + COCC[N+]1(C)CCCCC1.O=S(=O)([N-]S(=O)(=O)C(F)(F)F)C(F)(F)F
6. CCCCCCC [heptane] + COCC[N+]1(C)CCCCC1.O=S(=O)([N-]S(=O)(=O)C(F)(F)F)C(F)(F)F
7. CCO [ethanol] + COCC[N+]1(C)CCCCC1.O=S(=O)([N-]S(=O)(=O)C(F)(F)F)C(F)(F)F
8. COC(C)(C)C [2-methoxy-2-methylpropane] + COCC[N+]1(C)CCCCC1.O=S(=O)([N-]S(=O)(=O)C(F)(F)F)C(F)(F)F

**Result**
0.916
1.29
6.13
50.8
0.76
24.5
1.73
2.56
